Assay target: Replicase polyprotein 1ab (Severe acute respiratory syndrome coronavirus 2, UniProt P0DTD1)
Readout kind: IC50 (nM)

* CC1(C)[C@@H]2[C@@H](C(=O)N[C@H](C=O)C[C@@H]3CCNC3=O)N(C(=O)OC(c3ccccc3)c3ccccc3)C[C@@H]21 | 96
* CC1(C)[C@@H]2[C@@H](C(=O)N[C@H](C=O)C[C@@H]3CCNC3=O)N(C(=O)C(Oc3ccc(Cl)cc3)Oc3ccc(Cl)cc3)C[C@@H]21 | 280
* CC1(C)[C@@H]2[C@@H](C(=O)N[C@H](C=O)C[C@@H]3CCNC3=O)N(C(=O)[C@H](CC3CCCCC3)NC(=O)OCc3ccccc3)C[C@@H]21 | 250
* CC1(C)[C@@H]2[C@@H](C(=O)N[C@H](C=O)C[C@@H]3CCNC3=O)N(C(=O)N(c3ccc(Cl)cc3)c3ccc(Cl)cc3)C[C@@H]21 | 450
